The measurements presented in this section are drawn from PubChem BioAssay.

Here, each record is paired with measured GFP response vs DMSO data.
assay: modulators of LAP4-GFP expression in yeast, primary screen, S. cerevisiae, multiplex flow cytometry (AID 1873); details: 3 h, at 10 µM, active compounds read high
Records with an inconclusive call do not appear.
measured-parameter: GFP response vs DMSO (%)

- compound: "Cn1c(=O)c2c(ncn2Cc2ccccc2)n(C)c1=O"
  val: 103
- compound: "CC(C)CN1CC(C(=O)O)CC1=O (configuration not stated)"
  val: 104
- compound: "CC(C)NC(=O)c1ccc(C(C)C)cc1"
  val: 118
- compound: "COC1=CC(=O)CC(C)C12Oc1c(Cl)c(OC)cc(OC)c1C2=O (configuration not stated)"
  val: 103
- compound: "Oc1c(Cl)cc(Cl)c(Cl)c1Cc1c(O)c(Cl)cc(Cl)c1Cl"
  val: 96.8
- compound: "CCOC(=O)C(=O)Nc1ccc(Oc2ccccc2)cc1"
  val: 106
- compound: "COC(=O)C1=C(C)NC(C)=C(C(=O)OC)C1c1ccccc1[N+](=O)[O-]"
  val: 108
- compound: "OC(CCN1CCCCC1)(c1ccccc1)C1CCCCC1 (configuration not stated)"
  val: 106
- compound: "Cn1nc(-c2ccccn2)nc2c(=O)n(C)c(=O)nc1-2"
  val: 105
- compound: "CC(C)C[C@H](NC(=O)NC(C)C)C(=O)O"
  val: 95.9
- compound: "c1ccc2c3c(c(CN4CCCCC4)cc2c1)COC3"
  val: 122
- compound: "Cc1ncc([N+](=O)[O-])n1CC(O)CCl (configuration not stated)"
  val: 104

---

target: Beta-adrenergic receptor kinase 1 (Homo sapiens) (UniProt P25098); test: GRK2 binders displacing RNA aptamer, biochemical, validation, human GRK2, bead flow cytometry (AID 488806); conditions: bead-bound GRK2, FAM-aptamer displacement, at 10 µM, active compounds read high
Sequence (P25098 whole entry, looked up): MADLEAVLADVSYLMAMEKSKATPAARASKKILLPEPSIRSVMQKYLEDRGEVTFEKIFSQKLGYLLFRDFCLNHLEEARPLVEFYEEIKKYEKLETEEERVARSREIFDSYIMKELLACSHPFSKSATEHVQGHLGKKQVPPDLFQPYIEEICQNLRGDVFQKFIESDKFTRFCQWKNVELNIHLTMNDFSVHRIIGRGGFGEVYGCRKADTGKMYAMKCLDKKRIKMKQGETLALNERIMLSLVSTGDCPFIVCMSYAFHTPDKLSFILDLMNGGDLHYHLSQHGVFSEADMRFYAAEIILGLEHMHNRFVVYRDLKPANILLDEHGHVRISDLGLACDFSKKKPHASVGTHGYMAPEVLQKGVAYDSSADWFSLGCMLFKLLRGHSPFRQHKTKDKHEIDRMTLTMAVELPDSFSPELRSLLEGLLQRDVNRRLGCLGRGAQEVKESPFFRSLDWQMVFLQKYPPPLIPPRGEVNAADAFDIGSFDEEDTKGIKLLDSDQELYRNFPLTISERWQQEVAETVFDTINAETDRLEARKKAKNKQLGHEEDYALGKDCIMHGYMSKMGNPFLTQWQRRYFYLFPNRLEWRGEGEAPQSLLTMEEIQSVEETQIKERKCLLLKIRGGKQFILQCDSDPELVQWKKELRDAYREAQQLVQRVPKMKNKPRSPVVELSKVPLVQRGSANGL

- smiles-str: "CCCN1C[C@H](CSC)C[C@@H]2c3cccc4[nH]cc(c34)C[C@H]21"
  u: "%"
  aptamer binding inhibition: -1
- smiles-str: "CN(C)CCCNc1ncnc2c1cnn2-c1ccccc1"
  u: "%"
  aptamer binding inhibition: -2
- smiles-str: "Cc1ccc(OCCSc2ncccn2)c(C)c1"
  u: "%"
  aptamer binding inhibition: 1
- smiles-str: "Cn1c(=O)c2c(ncn2Cc2ccccc2)n(C)c1=O"
  u: "%"
  aptamer binding inhibition: 0
- smiles-str: "COc1ccc(-c2coc3cc(O)cc(O)c3c2=O)cc1"
  u: "%"
  aptamer binding inhibition: 0
- smiles-str: "CC(C)(C)c1csc(N/N=C/c2cccnc2)n1"
  u: "%"
  aptamer binding inhibition: 5
- smiles-str: "CN1CCN(CCCN2c3ccccc3Sc3ccc(C(F)(F)F)cc32)CC1"
  u: "%"
  aptamer binding inhibition: -2
- smiles-str: "COc1ccc(N2C(=O)[C@@H]3Cc4ccccc4CN3C2=O)cc1"
  u: "%"
  aptamer binding inhibition: 5
- smiles-str: "OC[C@@H](O)[C@@H](O[C@H]1O[C@H](CO)[C@@H](O)[C@H](O)[C@H]1O)[C@H](O)[C@@H](O)CO"
  u: "%"
  aptamer binding inhibition: 0
- smiles-str: "Cc1ccc2c(CN3CCN(Cc4ccc5c(c4)OCO5)CC3)cc(=O)oc2c1C"
  u: "%"
  aptamer binding inhibition: -2
- smiles-str: "C[C@H](NC(=O)NCCc1ccccc1)C(=O)O"
  u: "%"
  aptamer binding inhibition: 6
